Reference source for all entries: patent US9290451B2

experimental-system: human CB1 receptors (Homo sapiens (Human), UniProt P21554)
Sequence (P21554 whole entry): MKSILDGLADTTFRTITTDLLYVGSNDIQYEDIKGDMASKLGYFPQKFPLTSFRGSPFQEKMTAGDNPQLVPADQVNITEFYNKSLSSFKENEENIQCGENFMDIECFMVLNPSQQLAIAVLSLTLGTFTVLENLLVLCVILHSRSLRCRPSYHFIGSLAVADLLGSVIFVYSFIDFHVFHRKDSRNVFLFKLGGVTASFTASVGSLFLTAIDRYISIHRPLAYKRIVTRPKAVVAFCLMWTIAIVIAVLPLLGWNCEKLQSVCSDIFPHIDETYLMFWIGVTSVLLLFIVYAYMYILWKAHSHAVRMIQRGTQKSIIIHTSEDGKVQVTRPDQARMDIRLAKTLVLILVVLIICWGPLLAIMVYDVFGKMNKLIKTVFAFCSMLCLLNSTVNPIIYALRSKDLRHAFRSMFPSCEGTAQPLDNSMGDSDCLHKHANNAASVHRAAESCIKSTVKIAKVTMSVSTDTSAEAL
assay-name: cAMP assay, CHO cells expressing human CB1 receptors
Type: cell-based
measurement-parameters: CHO cells expressing human CB1, cAMP; read-out: human CB1 EC50
pEC50: −log10 of the molar value.
Overview of recorded pEC50 for various compounds

| compound | qualifier-sign | pEC50 |
| --- | --- | --- |
| CCC(CC)(NC(=O)c1ccc(C2CC2)c(OCC2CC2)n1)C(=O)N1CC(F)(F)C1 [Example 287] | < | 5.00 |
| CNC(=O)[C@H](CC(C)C)NC(=O)c1cccc(-c2cccc(F)c2)n1 [Example 210] | < | 5.00 |
| Cc1nc(C(NC(=O)c2ccc(N3CC(F)(F)C3)c(OCC3CC3)n2)C2CC2)no1 (centres unmarked) [Example 221] | = | 5.00 |
| Cc1nc([C@H](CC2CC2)NC(=O)c2cccc(-c3cccc(Cl)c3)n2)no1 [Example 38] | < | 5.00 |
| CCC(CC)(NC(=O)c1ccc(C2CC2)c(OCC[C@H](O)C(F)(F)F)n1)C(=O)NC [Example 320] | = | 6.49 |
